Where these numbers come from: the RNAGym collection of RNA variant scans (doi:10.1073/pnas.2313332121)

B1: TPR 5TU (parent)
chain: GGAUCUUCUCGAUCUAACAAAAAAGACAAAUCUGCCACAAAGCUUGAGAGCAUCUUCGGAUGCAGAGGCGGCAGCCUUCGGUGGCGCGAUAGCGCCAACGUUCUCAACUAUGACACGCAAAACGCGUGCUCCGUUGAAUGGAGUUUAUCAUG

variants of: B1; assay: polymerase ribozyme fitness, log enrichment relative to wild type (log ratio); higher = more active; in vitro selection for triplet polymerase activity
This sample holds only a part of the variants without activity.
Threshold rule: polymerase ribozyme fitness (log ratio) greater than or equal to -2 is condition met; below that, condition not met.

Q. Assess whether reported polymerase ribozyme fitness (log ratio) for G11U U55G A60G G67A C93U sits at -2 or higher.
A. condition not met

Q. Assess whether reported polymerase ribozyme fitness (log ratio) for C95U A142C sits at -2 or higher.
A. condition met

Q. Assess whether reported polymerase ribozyme fitness (log ratio) for G84A A97G sits at -2 or higher.
A. condition not met

Q. Assess whether reported polymerase ribozyme fitness (log ratio) for G86U C105A sits at -2 or higher.
A. condition not met

Q. Assess whether reported polymerase ribozyme fitness (log ratio) for A20C A26C G128U U144G sits at -2 or higher.
A. condition not met

Q. Assess whether reported polymerase ribozyme fitness (log ratio) for U45A A52G U82G A115G G136U G141A U151G sits at -2 or higher.
A. condition not met

Q. Assess whether reported polymerase ribozyme fitness (log ratio) for A39U C76A G86C G126A C132U U134A sits at -2 or higher.
A. condition not met

Q. Assess whether reported polymerase ribozyme fitness (log ratio) for C14A G59C U78G C96U sits at -2 or higher.
A. condition not met

Q. Assess whether reported polymerase ribozyme fitness (log ratio) for U55A C96G A115U A119G sits at -2 or higher.
A. condition not met

Q. Assess whether reported polymerase ribozyme fitness (log ratio) for U31A A52G G84U sits at -2 or higher.
A. condition met

Q. Assess whether reported polymerase ribozyme fitness (log ratio) for A19C A20U U61C C76A U82C A91U U130G U146C sits at -2 or higher.
A. condition not met

Q. Assess whether reported polymerase ribozyme fitness (log ratio) for U55A G92U G124U G141C sits at -2 or higher.
A. condition met

Q. Assess whether reported polymerase ribozyme fitness (log ratio) for C38U A52C A60G A119G sits at -2 or higher.
A. condition met

Q. Assess whether reported polymerase ribozyme fitness (log ratio) for A52U C95A C103G C116G G133U sits at -2 or higher.
A. condition not met

Q. Assess whether reported polymerase ribozyme fitness (log ratio) for A60U U139A A150U sits at -2 or higher.
A. condition not met

Q. Assess whether reported polymerase ribozyme fitness (log ratio) for G46C G50U G68A C76A C85U U130G sits at -2 or higher.
A. condition not met

Q. Assess whether reported polymerase ribozyme fitness (log ratio) for C87G G152U sits at -2 or higher.
A. condition not met
